Cited source: patent US20260265246A1

List of Emax values.
- testedTarget: 5HT2A receptor (Homo sapiens, UniProt P28223)
- Sequence (P28223 whole entry): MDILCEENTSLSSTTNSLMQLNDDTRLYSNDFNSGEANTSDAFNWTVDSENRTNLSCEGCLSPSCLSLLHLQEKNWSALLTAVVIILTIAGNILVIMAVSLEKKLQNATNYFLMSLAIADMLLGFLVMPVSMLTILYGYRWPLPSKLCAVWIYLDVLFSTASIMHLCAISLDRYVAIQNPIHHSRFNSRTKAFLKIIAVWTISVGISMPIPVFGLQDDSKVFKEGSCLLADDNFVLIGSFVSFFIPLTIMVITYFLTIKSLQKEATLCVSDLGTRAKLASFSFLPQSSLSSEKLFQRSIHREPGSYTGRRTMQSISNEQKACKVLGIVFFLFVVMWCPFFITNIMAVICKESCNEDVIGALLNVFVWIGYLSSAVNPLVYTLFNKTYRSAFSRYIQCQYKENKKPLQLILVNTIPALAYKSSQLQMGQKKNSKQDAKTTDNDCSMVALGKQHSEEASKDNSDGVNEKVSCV
- experimentalProtocol: cell-based
- Set-up: expressed in transfected cells; host or cells: HEK293T cells, transient co-transfection
- testContext: HEK-293T, BRET2 Gαq dissociation, HEK293T cells, normalized to 5-HT; read-out: 5HT2A Gq Emax (%)
Field format: number, assumed %, no unit text.

// worked examples, Emax included
# compound, attributeMeasured, obsValue
data = [
    ("CN1CCC=C(c2n[nH]c3cc(F)ccc23)C1 [Example 95]", "Emax", 47.1),
    ("Cc1ccnc2[nH]cc(C3=CCCNC3)c12 [Example 9]", "Emax", 74.2),
    ("Cc1ccnc2[nH]cc(C3=CCCN(C)C3)c12 [Example 13]", "Emax", 68.7),
]

QUERY: // lookup Emax for Clc1ccc2[nH]nc(C3=CCCNC3)c2c1 [Example 84]
RESULT: 94.8

QUERY: Check Fc1cccc2c(C3=CCCNC3)n[nH]c12 [Example 90] too.
RESULT: 95.6

QUERY: Check CN1CCC=C(c2c[nH]c3nccc(F)c23)C1 [Example 117] too.
RESULT: 110

QUERY: Check C=CCN1CCC=C(c2n[nH]c3c(Cl)cccc23)C1 [Example 124] too.
RESULT: 64.9

QUERY: Check Cc1cccc2[nH]nc(C3=CCCN(C)C3)c12 [Example 97] too.
RESULT: 69
